settings: 318.15 K; 101.33 kPa; Liquid; Falling or rolling sphere viscometry
metric: viscosity (mPa·s)
Number only, in mPa·s; omit the unit.

compound	metric	reported-measurement
O=C[O-].[NH3+]CCCO [3-hydroxypropylammonium formate]	viscosity	98.17

Request: Please look up its viscosity: CC(=O)[O-].[NH3+]CCCO [3-hydroxypropylammonium acetate]
Response: 714.44

---

Measured viscosity of individual entries
conditions: 318.15 K; 101.33 kPa; Liquid; Falling or rolling sphere viscometry
# number only, unit mPa·s dropped from output

Take a look at these entries with their results.
molecule	viscosity / mPa·s
O=C([O-])C(F)(F)F.[NH3+]CCCO [3-hydroxypropylammonium trifluoroacetate]	262.07
CC(=O)[O-].CCC[NH3+] [propylammonium acetate]	167.69

Next, consider the following molecule.
Request: What viscosity value was documented for this molecule, CCC[NH3+].O=C[O-] [propylammonium formate] ?
Response: 37.16
